tested on: NCI-H522 lung; experiment: NCI-60 one-dose screen, 48 h (100 = growth as untreated, 0 = no growth, -100 = all killed); details: 10 µM unless noted
About 83,000 compounds went through this panel and 20% of them were active in at least one assay; those are over-represented in the sample as a whole.
Classify by measured growth: true (1) if it is equal to or exceeds 40%, false (0) if it is smaller.

Compound	Label value
C=CCSc1nnc(-c2ccc(-c3nc4ccccc4[nH]3)cc2)o1	true (1)
C=CC[n+]1cccc2c3ccccc3ccc21	false (0)
CCCSc1nnc(-c2c(C)nc3sccn23)o1	true (1)
CC(=O)c1c2c(c3ccc4c5ccccc5ccc4n13)C(=O)c1ccccc1C2=O	true (1)
Clc1ccc(-c2nc3ccc(-c4nnc(SCc5ccccc5)o4)cc3[nH]2)cc1	false (0)
CCOc1ccccc1[C@H]1C(C(=O)c2ccc(Cl)cc2)C2(N[C@@H]1c1ccccc1)C(=O)Nc1ccc(Cl)cc12 (some centres not stated)	false (0)

----------
System: NCI-H460 lung
Assay: NCI-60 one-dose screen, 48 h (100 = growth as untreated, 0 = no growth, -100 = all killed)
Details: 10 µM unless noted
Method: Growth inhibition of the NCI-H460 human Non-Small Cell Lung tumor cell line is measured as a screen for anti-cancer activity. Cells are grown in 96 well plates and exposed to the test compound for 48 hours. Compounds are tested at a single concentration, which is 10^-5 M for most compounds. The reported endpoint is percent growth (GI% or GIPRCNT), where numbers from 0 - 100% represent growth inhibition, and numbers from -100% - 0 represent cell death. […]
About 83,000 compounds went through this panel and 20% of them were active in at least one assay; those are over-represented in the sample as a whole.
Classify by measured growth: t if it is equal to or exceeds 20%, f if it is smaller.

Molecule	Label value
N#Cc1c(-c2ccc(F)cc2)nc(SCc2ccc(F)cc2)nc1N1CCNCC1	f
Cc1ccc(C(=O)C[n+]2cccc3c4ccccc4ccc32)cc1	f
N/C(=N\c1nc2ccccc2s1)NC(=O)Nc1ccccc1[N+](=O)[O-]	f
Cc1cc(C2(c3cc(C)c(OCC(O)CNc4c(C)n(C)n(-c5ccccc5)c4=O)cc3C(C)C)OC(=O)c3ccccc32)c(C(C)C)cc1OCC(O)CNc1c(C)n(C)n(-c2ccccc2)c1=O (configuration not stated)	f
CC(=O)c1c2c(c3ccc4c5ccccc5ccc4n13)C(=O)c1ccccc1C2=O	t
CC1=C(C(=O)OCc2ccccc2)C(c2ccc(N(C)C)cc2)n2c(nc3ccccc32)N1 (configuration not stated)	t
FC(F)(F)c1cc2c(Cl)ncnc2n1CCC1CCOCC1	f
C#CCN(C)CCCOc1ccc(N(C)C(=O)c2cc(C(C)C)c(O)cc2O)cc1Cl	f
O=C1Nc2ccc(F)cc2/C1=C/C(=O)c1cc2ccccc2oc1=O	t
C=CC[n+]1cccc2c3ccccc3ccc21	t
CN(C)CCCc1ccc(Nc2cnn(C)c(=O)c2Cl)cc1	t
Clc1ccc(CNc2nc(SCCN3CCOCC3)nc3c2cnn3CC(Cl)c2ccc(Br)cc2)cc1 (configuration not stated)	t
O=c1ccc(Cn2c(C(F)(F)F)cc3c(Cl)ncnc32)c[nH]1	t
COc1ccc(-c2cc(-c3cc(C(C)C)c(O)cc3C)nn2-c2ccc(S(N)(=O)=O)cc2)cc1	t
CC(=O)C[n+]1cccc2c3ccccc3ccc21	t
